Test system: OVCAR-5
Protocol: NCI tumour cell line growth inhibition, 48 h
Activity calls are given as the source filed them. No stated cut-off is given here; in the data, active = GI50 up to about 1.1 µM and inactive = higher.
Measurement Name: GI50

1) Cc1nc(C)c(C(=O)Nc2cccc3c2C(=O)NC3=O)cc1C(=O)Nc1cccc2c1C(=O)NC2=O; > 100 µM (inactive)
2) Nc1ccc(/C=C/c2ccnc3ccccc23)cc1; 19.6 µM (inactive)
3) COc1nc(N)nc2nc[nH]c12; 345 µM (inactive)

Q: Any idea what its GI50 is? The compound is `Cc1cc2c(C(C)C)c(O)c(O)c(/C=N/c3ccccc3)c2c(O)c1-c1c(C)cc2c(C(C)C)c(O)c(O)c(/C=N/c3ccccc3)c2c1O`
A: > 100 µM (inactive)

Q: Need GI50, item `COc1ccc(NC(=S)N/N=C(\C)c2nc3cccnc3[nH]2)cc1`
A: 6.11 µM (inactive)

Q: Query: GI50; subject: Cc1ccc([N+](=O)[O-])cc1S(=O)(=O)Nc1ccc(C2=NNC(c3cccs3)C2)cc1 (centres undefined)
A: 58.9 µM (inactive)

Q: # get_value(readout='GI50', item= `O=C(O)c1nc2nc(Cl)c(Cl)nc2[nH]1` )
A: > 100 µM (inactive)

Q: Any idea what its GI50 is? The compound is `N#Cc1sc2c(c1OC(=O)c1ccc(Cl)cc1Cl)c(=O)n(-c1ccccc1)c(=S)n2-c1ccccc1`
A: 50.7 µM (inactive)

Q: Fill blank: measured GI50 of the compound `CC(=O)Nc1ccc2cc3c(nc2n1)c1cccnc1n3S(=O)(=O)c1ccccc1` is ____.
A: > 100 µM (inactive)

Q: May I ask what GI50 has been recorded for COc1ccc2c(c1)nc1n2C(c2c(F)cccc2Cl)SC1 (centres undefined) ?
A: > 37.2 µM (inactive)

Q: Entry under review: `Clc1nc(-c2ccccc2)nc(Cl)c1Cl` . Reported GI50?
A: 15.8 µM (inactive)

Q: What value of measured GI50 is listed for `O=C(/C=C/c1ccc(O)cc1)c1ccc2c(c1)OCO2` ?
A: 27.4 µM (inactive)

Q: Fill blank: measured GI50 of the compound O=C(Cc1ccccc1)NN1C(=O)C(Cl)C1c1cc(Br)ccc1O (centres undefined) is ____.
A: 5.57 µM (inactive)

Q: Look up GI50 for this compound: `Cc1c(/N=C\c2ccc(N(CCC#N)CCC#N)cc2)c(=O)n(-c2ccccc2)n1C`
A: > 100 µM (inactive)
